molecular target: A1PI (Homo sapiens); construct: Human plasma is currently the only approved source of therapeutic AlPI; experiment: A1PI purification from 5 mg hSA + 1 mg A1PI on peptide column, A1PI mass balance; type: binding; settings: A1PI; 5 mg hSA + 1 mg A1PI, 20° C.; * Below detection limit
Sequence (P01009 25-418): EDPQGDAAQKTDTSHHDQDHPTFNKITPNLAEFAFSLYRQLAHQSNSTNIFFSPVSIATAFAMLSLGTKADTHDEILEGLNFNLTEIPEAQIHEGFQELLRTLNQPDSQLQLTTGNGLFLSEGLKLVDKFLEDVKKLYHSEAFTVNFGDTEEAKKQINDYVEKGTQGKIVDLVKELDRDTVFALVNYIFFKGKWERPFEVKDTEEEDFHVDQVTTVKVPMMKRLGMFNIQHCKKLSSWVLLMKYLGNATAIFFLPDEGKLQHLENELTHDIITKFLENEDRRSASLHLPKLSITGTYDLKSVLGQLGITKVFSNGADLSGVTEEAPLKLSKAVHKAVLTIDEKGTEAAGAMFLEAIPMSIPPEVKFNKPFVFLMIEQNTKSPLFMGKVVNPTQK
Ends that are not written are not given here.
VALUE KIND: Mass Protein per Eluate Fraction, 1M NaCl (mg)

// solved cases for Mass Protein per Eluate Fraction, 1M NaCl follow
- VIWLVR: 0.08
- ARWYIH: 0.16

P. YKFRFW
Q. IIWLYK
R. IWRKYS
S. PYWIVR
Arrange these substances by their Mass Protein per Eluate Fraction, 1M NaCl, starting with the largest number. Please reply with the labels ordered as requested. Many thanks.
R, S, P, Q
(R: 0.58 mg, S: 0.32 mg, P: 0.16 mg, Q: 0.07 mg)
